Tested on: Actinomyces viscosus
Assay Notes: In vitro antibacterial activity against Actinomyces viscosus M-100-2000
Assay type: functional
Consider the cut-off 0.5 µg/mL. If the recorded MIC is strictly smaller, the label is t; if not, the label is f.

In the record for O=C(Nc1nc2ccccc2s1)c1cc(Br)cc(Br)c1O , is MIC less than 0.5 µg/mL?
f

In the record for CCCCCCCC(=O)c1ccc(O)c(C(=O)Nc2nc3ccccc3s2)c1 , is MIC less than 0.5 µg/mL?
f

In the record for CCCCCCCCCCc1ccc(O)c(C(=O)Nc2ccc(Br)cc2)c1 , is MIC less than 0.5 µg/mL?
f

In the record for Cc1ccc(O)c(C(=O)NCCCCCCNC(=O)c2cc(C)ccc2O)c1 , is MIC less than 0.5 µg/mL?
f

In the record for O=C(Nc1ccc(Br)cc1)c1ccccc1O , is MIC less than 0.5 µg/mL?
f

In the record for CCCCCCCCCC(=O)c1ccc(O)c(C(=O)Nc2ccc(Br)cc2)c1 , is MIC less than 0.5 µg/mL?
t

In the record for O=C(NCCCCCCNC(=O)c1ccccc1O)c1ccccc1O , is MIC less than 0.5 µg/mL?
f

In the record for O=C(Nc1cccc(C(F)(F)F)c1)c1cc(Br)cc(Br)c1O , is MIC less than 0.5 µg/mL?
f

In the record for CCCCCCc1ccc(O)c(C(=O)Nc2ccc(Br)cc2)c1 , is MIC less than 0.5 µg/mL?
t

In the record for O=C(Nc1nc2c(Cl)cccc2s1)c1cc(Br)cc(Br)c1O , is MIC less than 0.5 µg/mL?
f

In the record for CCCCCCc1ccc(O)c(C(=O)NCc2ccc([N+](=O)[O-])cc2)c1 , is MIC less than 0.5 µg/mL?
t

In the record for CCCCCC(=O)c1ccc(O)c(C(=O)Nc2ccc(Br)cc2)c1 , is MIC less than 0.5 µg/mL?
f

In the record for O=C(NCCCCCCNC(=O)c1cc(Br)ccc1O)c1cc(Br)ccc1O , is MIC less than 0.5 µg/mL?
f

In the record for CCC(=O)c1ccc(O)c(C(=O)Nc2ccc(Br)cc2)c1 , is MIC less than 0.5 µg/mL?
f

In the record for CCCCCCCCc1ccc(O)c(C(=O)Nc2ccc(Br)cc2)c1 , is MIC less than 0.5 µg/mL?
t

In the record for CCCCCCCCCCCCCC(=O)c1ccc(O)c(C(=O)Nc2ccc(Br)cc2)c1 , is MIC less than 0.5 µg/mL?
f

In the record for Cc1ccc(O)c(C(=O)Nc2ccc(Br)cc2)c1 , is MIC less than 0.5 µg/mL?
f

In the record for Cc1cccnc1NC(=O)c1cc(Br)cc(Br)c1O , is MIC less than 0.5 µg/mL?
f

In the record for CCCCCCc1cc(C(=O)Nc2ccc(Br)cc2)c(O)c([N+](=O)[O-])c1 , is MIC less than 0.5 µg/mL?
t

In the record for CCCCCCCC(=O)c1ccc(O)c(C(=O)Nc2ccc([N+](=O)[O-])cc2)c1 , is MIC less than 0.5 µg/mL?
t

In the record for CCCc1ccc(O)c(C(=O)Nc2ccc(Br)cc2)c1 , is MIC less than 0.5 µg/mL?
f

In the record for O=C(NCC1CCCCC1)c1cc(Br)cc(Br)c1O , is MIC less than 0.5 µg/mL?
f

In the record for Cc1ccc(O)c(C(=O)Nc2ccc([N+](=O)[O-])cc2)c1 , is MIC less than 0.5 µg/mL?
f

In the record for COc1ccc(O)c(C(=O)Nc2ccc(Br)cc2)c1 , is MIC less than 0.5 µg/mL?
f

In the record for CCCCCCc1ccc(O)c(C(=O)Nc2nc3ccccc3s2)c1 , is MIC less than 0.5 µg/mL?
f

In the record for O=C(Nc1nccs1)c1cc(Br)cc(Br)c1O , is MIC less than 0.5 µg/mL?
f

In the record for O=C(NCc1ccc(Cl)cc1)c1cc(Br)cc(Br)c1O , is MIC less than 0.5 µg/mL?
f

In the record for CCCCCCCCCCCC(=O)c1ccc(O)c(C(=O)Nc2nc3ccccc3s2)c1 , is MIC less than 0.5 µg/mL?
f

In the record for O=C(Nc1ccc(Br)cc1)c1cc([N+](=O)[O-])ccc1O , is MIC less than 0.5 µg/mL?
f

In the record for O=C(Nc1nc2cc(Cl)ccc2[nH]1)c1cc(Br)cc(Br)c1O , is MIC less than 0.5 µg/mL?
f

In the record for CCCCCCCCCCCC(=O)c1ccc(O)c(C(=O)NCc2ccc(Cl)c(Cl)c2)c1 , is MIC less than 0.5 µg/mL?
f

In the record for CCCCCCc1ccc(O)c(C(=O)NCc2ccc(Cl)cc2)c1 , is MIC less than 0.5 µg/mL?
f
